Tested on: VDR:RXRa (NR concentration 270 nM, RXRa partner concentration 90 nM)
method-summary: PBM binding z-score (relative to random genomic background probes); higher = stronger binding; sequences stand for … in GC…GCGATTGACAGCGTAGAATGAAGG
Listed here: items and their measured PBM binding z-score.
observable: PBM binding z-score

INSERT INTO results (biopolymer_sequence, recorded_number) VALUES
  ('CCTCCTGGGCCAAGGTCATTGATCAGTCAAAGCA', 2.91),
  ('AGTCAAAGTTCACCTAGGTAACGTAAGATATGCT', 4.74),
  ('ACAGACAGGTGAGTGAAGGGAACTCAGCTGGACG', -0.408),
  ('CCTACTGGGCCAAAAAGGTCGTTGATGCCGATAA', 2.79),
  ('TAGCCTAGGTCATGGGCAAGTATACCACGCGAAC', 2.13),
  ('GCGACTGGGGCGTCAGCAGGTTACCATAACTTAA', -0.382),
  ('TAGCCTAGGTCAGATCTGGCCAGTATACGCTATA', 0.166),
  ('GATACAGGGTCAAGCCCAGAGTACGCGTATTGAT', 4.5),
  ('AGGACGAGGGCAATGAGTTGATAGCACGGGTGGC', 5.11),
  ('CTCGAAAGGTCGGTTGAGGCGAGTATACGGATAA', 0.809),
  ('CCTTACGGGTCACGAGGTGATAGCACGACGAGCG', 4.18),
  ('TCTTGTAGATAAAGCAGGTTAAGAAAGCCTGAGT', 0.751);

###

Listed here: items and their measured PBM binding z-score.
Tested on: PPARg DBDmut:RXRa IVT, anti-PPARg (DBD mutation: PPARg1 K132A/R137A, NR concentration 270 nM, RXRa partner concentration 90 nM)
method-summary: PBM binding z-score (relative to random genomic background probes); higher = stronger binding; sequences stand for … in GC…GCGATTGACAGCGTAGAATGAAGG
observable: PBM binding z-score

INSERT INTO results (biopolymer_sequence, recorded_number) VALUES
  ('GCAGACGGGTGAAACGCAGGTAACTCAGGGTGGC', -1.33),
  ('CTCGAAAGGTCGTGCTCATGTGAGTATACCAAAC', 0.526),
  ('GCTGCTAGGTCAGGTTGGTCAGGTAACGGGTACG', -0.63),
  ('GGCACGAGGGCAAGTTGATAGCAGAGTTTGATGG', -0.405),
  ('TGAATCAGGTTAAAGATCAGGGAACGTGGCGTCG', 0.98),
  ('AGAATGAGGTTATACGTAGATGAGGGAAGAAAGT', 1.45),
  ('GCAGACAGGTGAATCGCAGGTAACTCAGGGTGGC', -0.695),
  ('ATCTCTAGGTAAAGTTGAGTGAAAGATCGATAGA', 0.815),
  ('GTACCAAGGTGAATATGTCGTTGATGAGTAGGCG', 0.633),
  ('ATATGTAGGTTAGCTGGGGTTATTCAGACTAGGC', 3.12),
  ('CTTGCTAGGTCAATGGTCAGCTAAAGCAGCTCGC', -0.161),
  ('TTACCAAGGTGAGCTGAGGTCGTAGATCCAACTC', -0.714),
  ('TCTTGTAGATCAGCAGGTTAAGAATGCTGGCCAA', -0.195),
  ('CCTACTGGGCCATAAAGGTCATTGATGCCGATAA', -0.0892),
  ('CCGAGTAGGTGATGGGGCATTCAGGCAACGGTGA', 0.0749),
  ('GGAACGAGGGCATTCGAGTTGATAGGATGGCGAT', -0.409),
  ('TCTAGTTGGTCAAAGGTCACCCACTCGAAATGCG', 1.96),
  ('CCGACTAGGGCAAAGGTTACCATACTCAGTACGA', 0.866),
  ('ATATGTAGGTTAGCTGGGGTCATTCGGACTAGGC', 3.21),
  ('CCTTACAGGTCACTGACAGGTTATAGCATTTGGA', 1.33),
  ('CCGACAGGGGCAAGGTTACCATAACGCACAGCCA', -0.56),
  ('CCTTACGGGTCAAGGTTATAGAACGGGTGGTACG', -0.135),
  ('GCATATAGGTAATACAAGGTGAATGTCCGATTGT', 1.78),
  ('ACTTACGGGTCAATGAGGTTATAGCACGCGTATA', 1.87),
  ('CGAACGAGGGCATGAGTTGATGGCAAATGCCGAT', -0.341),
  ('AACTCTAGGTAACAAGTTCAGTGAAAGAGAGGAC', 0.517);

###

System: PPARg:RXRa 270nM:90nM, anti-RXR (NR concentration 270 nM, RXRa partner concentration 90 nM)
method-summary: PBM binding z-score (relative to random genomic background probes); higher = stronger binding; sequences stand for … in GC…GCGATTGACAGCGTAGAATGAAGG
Give 1 (yes) when the value for PBM binding z-score is at least 3. Give 0 (no) when it is less.

INSERT INTO measurements (biopolymer_sequence, class_assignment) VALUES
  ('CCTAGTTGGTCAGGAGGTCACACAGCGGATATGA', '1 (yes)'),
  ('CAAACTAGGTCAAGATCAAAGTCGGTTTGTGCCA', '1 (yes)'),
  ('CCTTACGGGTCACTGAGAGGTTATAGCATTTGGA', '1 (yes)'),
  ('AGTCAAAGTTCACTAGGAAACGTAAGATTCAGCT', '1 (yes)'),
  ('GCGACTGGGGCATCAGCAGGTTGCCATAACTTAA', '0 (no)'),
  ('TTACCAAGGTGATGGTCGTTGATCCCTCTGTAGA', '0 (no)'),
  ('ATTTCTAGGTAAAGATAGTTCAGTGAATGCAAAT', '0 (no)'),
  ('TCTTGTAGATCCACAGGAGGTTAAGAAAGATCGA', '0 (no)'),
  ('ATCTCTAGGTAGAAGTTCAGTGAATCCCGAGGAT', '1 (yes)'),
  ('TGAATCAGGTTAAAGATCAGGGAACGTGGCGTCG', '1 (yes)'),
  ('CTCGAGAGGTCGGTTGAGGTGAGTATACGGATAA', '0 (no)'),
  ('GCGACTGGGGCCAAGCAGGTTACCATAAGGTTGG', '0 (no)'),
  ('GCTATTATTTGAAAGGGCAACCGAATGATTCTCG', '0 (no)'),
  ('CTCGAAAGGTCGTGCTAAGGTGAGTATACCAAAC', '1 (yes)'),
  ('CCTTTCGGGTCACTGACAGGTTATAGCATTTGGA', '1 (yes)'),
  ('CCTTCTGGGCCAAAAAGGTCATTGATGCCGATAA', '1 (yes)'),
  ('TCTTGTAGATCCAAGGTTAAGAAAGCCGAAGCCT', '1 (yes)'),
  ('AATACAGGGTCACCAGGCCAGAGTAGGTACGAAT', '1 (yes)'),
  ('GCTCGGAGGACAAGGTCAAAGCTTTGTCCGTAGA', '1 (yes)'),
  ('CGTCCAAGGTCACAGGTCAGTGAAGAGATGACGG', '1 (yes)'),
  ('ACAGACAGGTGTTGAAGGTAACTCAGGCTATCAT', '0 (no)'),
  ('ACAGACCGGTGATGAAGGTAACTCAGGCTATCAT', '0 (no)'),
  ('CGTACAAGGTCAGCAGGTCAGTGAAAGCGACGTG', '1 (yes)');

###

System: VDR homodimer (NR concentration 270 nM)
method-summary: PBM binding z-score (relative to random genomic background probes); higher = stronger binding; sequences stand for … in GC…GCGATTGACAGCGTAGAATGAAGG
Give class 1 when the value for PBM binding z-score is at least 1. Give class 0 when it is less.

INSERT INTO assay_data (biopolymer_sequence, target_system, class_assignment) VALUES
  ('TCTATTAGGTGATTAGGGCAACCGAAACAGCGGA', 'VDR homodimer (NR concentration 270 nM)', 'class 0'),
  ('CCTGCTAGGTCATGTTCAGCTAATCTACAGTATG', 'VDR homodimer (NR concentration 270 nM)', 'class 0'),
  ('ATCGAAGGGTCGTGAGGTGAGTATACAGAAAGGC', 'VDR homodimer (NR concentration 270 nM)', 'class 0'),
  ('ACAGACAGGTGATGAAGGTAACTCACGCTATCAT', 'VDR homodimer (NR concentration 270 nM)', 'class 0'),
  ('ACTACAGGGTCATCGTAGGCCAGAGTACGCACAG', 'VDR homodimer (NR concentration 270 nM)', 'class 1'),
  ('CGTCCAAGGTCAGCAGGTCGGTGAAAGCGACGTG', 'VDR homodimer (NR concentration 270 nM)', 'class 1'),
  ('TCTAGTAGGTTAGTCGGGGCATTCAGCCAACATA', 'VDR homodimer (NR concentration 270 nM)', 'class 1'),
  ('TAGCCTAGGTCATGCGGGCGAGTATAGTGTCGGC', 'VDR homodimer (NR concentration 270 nM)', 'class 0'),
  ('TCTTGTAGATCAATAGATGTTAAGAAAGTGCGCT', 'VDR homodimer (NR concentration 270 nM)', 'class 0'),
  ('TCGAGTAGGTTAGTCGGGGCATTCTGCCAACATA', 'VDR homodimer (NR concentration 270 nM)', 'class 0'),
  ('AGAATGAGGTTATACATAGATCAGGGAAGAAAGT', 'VDR homodimer (NR concentration 270 nM)', 'class 1');
